- System: human CRTH2 (Homo sapiens, UniProt Q9Y5Y4)
- Construct: expressed in transfected cells
- Sequence (Q9Y5Y4 1-395): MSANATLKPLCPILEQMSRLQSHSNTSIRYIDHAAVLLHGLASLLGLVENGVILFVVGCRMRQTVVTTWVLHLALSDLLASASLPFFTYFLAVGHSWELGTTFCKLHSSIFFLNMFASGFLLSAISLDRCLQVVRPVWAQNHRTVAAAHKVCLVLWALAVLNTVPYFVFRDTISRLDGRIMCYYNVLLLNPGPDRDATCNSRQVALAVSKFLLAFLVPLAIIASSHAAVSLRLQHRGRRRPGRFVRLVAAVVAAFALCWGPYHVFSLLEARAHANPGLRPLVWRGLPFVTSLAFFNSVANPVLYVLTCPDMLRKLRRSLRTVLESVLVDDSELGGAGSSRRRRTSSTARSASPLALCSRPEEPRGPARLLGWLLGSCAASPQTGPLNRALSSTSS
- Protocol summary: [35S]GTPγS binding assay (SPA) on membranes from CHO-K1 cells stably expressing human CRTH2, stimulated with 60 nM DHK-PGD2
- Format: biochemical
- Run conditions: potency class symbols; Table 2; read-out: CRTH2 hGTPγS IC50
pIC50: −log10 of the molar value.
pIC50: recorded values

Ask: // map CN(Cc1ccc(OCC(=O)O)c(-c2cncc(C(F)(F)F)c2)c1)S(=O)(=O)c1ccc(F)cc1 to recorded pIC50 (system: human CRTH2 (Homo sapiens, UniProt Q9Y5Y4))
Reply: 6.00 to 7.00

Ask: Find the measured pIC50: item CN(Cc1ccc(OCC(=O)O)c(-c2ccc3ccn(C)c3c2)c1)S(=O)(=O)c1ccc(F)cc1 , target or system human CRTH2 (Homo sapiens, UniProt Q9Y5Y4).
Reply: > 7.00

Ask: Return pIC50 measured with human CRTH2 (Homo sapiens, UniProt Q9Y5Y4) given this compound: COc1cc(F)cc(-c2cc(CN(C)S(=O)(=O)c3ccc(F)cc3)ccc2OCC(=O)O)c1
Reply: > 7.00

Ask: Query the reported pIC50 for human CRTH2 (Homo sapiens, UniProt Q9Y5Y4); item: CN(Cc1ccc(OCC(=O)O)c(-c2ccc[n+]([O-])c2)c1)S(=O)(=O)c1ccc(F)cc1
Reply: 5.00 to 6.00

Ask: Quick check: pIC50 on human CRTH2 (Homo sapiens, UniProt Q9Y5Y4), item CN(Cc1ccc(OC(C)(C)C(=O)O)c(-c2cccc(C(F)(F)F)c2)c1)S(=O)(=O)c1ccc(F)cc1 ?
Reply: 5.00 to 6.00

Ask: Record lookup: for human CRTH2 (Homo sapiens, UniProt Q9Y5Y4), what pIC50 belongs to CN(Cc1ccc(OCC(=O)O)c(-c2cccc(C(F)(F)F)c2)c1)S(=O)(=O)c1cccc(F)c1 ?
Reply: 6.00 to 7.00

Ask: Lab note: need pIC50 with human CRTH2 (Homo sapiens, UniProt Q9Y5Y4) for entry CN(Cc1ccc(OCC(=O)O)c(-c2cnccn2)c1)S(=O)(=O)c1ccc(F)cc1 , please look it up.
Reply: 5.00 to 6.00

* * *

- System: human CRTH2 (Homo sapiens, UniProt Q9Y5Y4)
- Construct: expressed in transfected cells
- Protocol summary: [35S]GTPγS binding assay (SPA) on membranes from CHO-K1 cells stably expressing human CRTH2, stimulated with 60 nM DHK-PGD2
- Type: biochemical
- Run conditions: potency class symbols; Table 2; read-out: CRTH2 hGTPγS IC50
pIC50: −log10 of the molar value.
pIC50 listing for selected molecules.

The following molecules have reported results that may help.
                         compound_structure                                    system  measured_attribute  recorded_result
0  CN(Cc1ccc(OCC(=O)O)c(-c2cc(F)ccc2F)c1)S(=O)(=O)c1ccccc1  human CRTH2 (Homo sapiens, UniProt Q9Y5Y4)               pIC50     5.00 to 6.00
1  CN(Cc1ccc(OCC(=O)O)c(-c2ccc(C(F)(F)F)cc2)c1)S(=O)(=O)c1ccc(F)cc1  human CRTH2 (Homo sapiens, UniProt Q9Y5Y4)               pIC50     5.00 to 6.00
2  CN(C)C(=O)c1cccc(-c2cc(CN(C)S(=O)(=O)c3ccc(F)cc3)ccc2OCC(=O)O)c1  human CRTH2 (Homo sapiens, UniProt Q9Y5Y4)               pIC50     6.00 to 7.00
3  CN(Cc1ccc(OCC(=O)O)c(-c2cccc(C(F)(F)F)c2)c1)S(=O)(=O)c1ccc(C#N)cc1  human CRTH2 (Homo sapiens, UniProt Q9Y5Y4)               pIC50     6.00 to 7.00
4  CN(Cc1ccc(OCC(=O)O)c(-c2ccc(F)c(F)c2)c1)S(=O)(=O)c1ccccc1  human CRTH2 (Homo sapiens, UniProt Q9Y5Y4)               pIC50     5.00 to 6.00

Shifting focus to the molecule that follows.
Ask: What does the data say about its pIC50? Entry: CN(Cc1ccc(OCC(=O)O)c(-c2cc(F)cc(F)c2)c1)S(=O)(=O)c1ccc(F)c(F)c1
Reply: > 7.00

* * *

- System: human CRTH2 (Homo sapiens)
- Construct: expressed in transfected cells
- Sequence (Q9Y5Y4 1-395): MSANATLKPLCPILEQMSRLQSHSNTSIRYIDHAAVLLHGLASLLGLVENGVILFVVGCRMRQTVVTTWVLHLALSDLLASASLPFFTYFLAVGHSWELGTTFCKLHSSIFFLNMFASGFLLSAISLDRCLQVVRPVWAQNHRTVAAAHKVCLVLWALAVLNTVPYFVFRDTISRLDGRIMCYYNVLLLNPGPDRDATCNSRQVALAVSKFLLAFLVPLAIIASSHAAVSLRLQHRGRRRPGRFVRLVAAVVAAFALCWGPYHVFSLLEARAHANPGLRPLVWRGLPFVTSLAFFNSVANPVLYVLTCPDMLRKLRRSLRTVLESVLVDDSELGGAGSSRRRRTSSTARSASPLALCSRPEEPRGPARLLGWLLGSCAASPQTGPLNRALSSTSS
- Protocol summary: [35S]GTPγS binding assay (SPA) on membranes from CHO-K1 cells stably expressing human CRTH2, stimulated with 60 nM DHK-PGD2
- Type: biochemical
- Run conditions: potency class symbols; Table 2; read-out: CRTH2 hGTPγS IC50
Recorded IC50 by entry

Use the examples below as a reference point.
In [3]: df
Out[3]:
                         compound_structure  measured_attribute  recorded_result
0  CN(Cc1cc(-c2cccc(C#N)c2)c(OCC(=O)O)cc1Cl)S(=O)(=O)c1ccccc1                IC50         < 100 nM
1  COc1ccc(S(=O)(=O)N(C)Cc2ccc(OCC(=O)O)c(-c3cc(F)cc(C#N)c3)c2)cc1F                IC50         < 100 nM
2  CN(Cc1ccc(OCC(=O)O)c(-c2ccc3ccncc3c2)c1)S(=O)(=O)c1ccc(F)cc1                IC50   100 to 1000 nM

From here, focus on the item given below.
Ask: # lookup: IC50 of CCN(Cc1ccc(OCC(=O)O)c(-c2cccc(C(F)(F)F)c2)c1)S(=O)(=O)c1ccc(F)c(F)c1
Reply: 100 to 1000 nM

* * *

- System: human CRTH2 (Homo sapiens, UniProt Q9Y5Y4)
- Construct: expressed in transfected cells
- Sequence (Q9Y5Y4 1-395): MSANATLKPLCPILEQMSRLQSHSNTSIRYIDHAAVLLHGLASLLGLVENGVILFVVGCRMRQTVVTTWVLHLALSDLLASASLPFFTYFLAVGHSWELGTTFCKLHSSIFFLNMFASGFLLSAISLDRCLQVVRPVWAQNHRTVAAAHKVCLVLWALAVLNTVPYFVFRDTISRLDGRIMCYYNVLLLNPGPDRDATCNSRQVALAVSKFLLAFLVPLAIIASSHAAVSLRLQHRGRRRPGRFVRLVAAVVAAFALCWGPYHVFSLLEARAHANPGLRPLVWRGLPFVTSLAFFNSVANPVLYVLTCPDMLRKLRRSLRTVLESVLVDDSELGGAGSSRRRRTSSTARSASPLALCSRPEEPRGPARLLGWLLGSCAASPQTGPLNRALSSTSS
- Protocol summary: [35S]GTPγS binding assay (SPA) on membranes from CHO-K1 cells stably expressing human CRTH2, stimulated with 60 nM DHK-PGD2
- Format: biochemical
- Run conditions: potency class symbols; Table 2; read-out: CRTH2 hGTPγS IC50
pIC50: −log10 of the molar value.
Measured attribute: pIC50

Ask: If you can, please state the reported pIC50 value of CN(Cc1ccc(OCC(=O)O)c(-c2ccc3ncn(C)c3c2)c1)S(=O)(=O)c1ccc(F)cc1 .
Reply: 5.00 to 6.00

Ask: Would you mind telling me what pIC50 value was observed for Cc1cccc(-c2cc(CN(C)S(=O)(=O)c3ccc(F)cc3)ccc2OCC(=O)O)c1 ?
Reply: 5.00 to 6.00

Ask: May I ask what pIC50 has been recorded for COc1cccc(-c2cc(CN(C)S(=O)(=O)c3ccc(F)cc3)ccc2OCC(=O)O)c1 ?
Reply: 6.00 to 7.00

Ask: Given the molecule CN(Cc1ccc(OCC(=O)O)c(-c2cc(F)cc(C#N)c2)c1)S(=O)(=O)c1cc(Cl)c(Cl)s1 , what is its reported pIC50?
Reply: > 7.00
